Data provenance is PubChem BioAssay (NCI).

test system: NCI-H460 lung; assay: NCI tumour cell line growth inhibition, 48 h
Listed next: entries and their corresponding TGI.
Provide the reading as a plain figure in µM.

Query: Entry CC1=CC2(C)/C=C(C)/C=C\CC(O)/C=C3/C=CC(=C4C(=O)OC2(CC1C)C4=O)OC3 (stereo not drawn) : reported TGI = ?
Response: 15.7

Query: Need TGI, item N#CC1=C(O)NC(O)=C(C#N)C1c1c(Cl)cccc1Cl
Response: 61.5

Query: So what's the measured TGI for this one? Oc1ccc(-c2nc3cc(C(F)(F)F)ccc3s2)cc1
Response: 30.1

Query: // lookup TGI for CCN(CC)CCOc1nc2ccccc2c2c1-c1ccc(OC)cc1C2=O
Response: 1.3
